Source listed as ChEMBL document CHEMBL4513216.

assay: Toxicity liver stage against HepG2, at 10uM; format: cell-based; parameters: test concentration 10 uM, cell line HepG2-A16-CD81EGFP; settings: human, HepG2-A16-CD81EGFP cells; read-out: INHIBITION
measure-name: cytotoxicity at 10 µM (%)
Respond with the bare value in %.

Below, 3 compounds whose answers are already recorded.
>  <compound>
Cc1cc(F)ccc1N1CCCC(NC(=O)CCc2ccncc2)C1 (configuration not stated)

>  <measure-name>
cytotoxicity at 10 µM

>  <quantity-unit>
%

>  <numeric-result>
8.72

$$$$
>  <compound>
O=C(NC[C@@H]1C[C@@H]2CN(C(=O)CO)C[C@H]2O1)c1ccsc1

>  <measure-name>
cytotoxicity at 10 µM

>  <quantity-unit>
%

>  <numeric-result>
-96.5

$$$$
>  <compound>
CC(C)N1CC[C@@H]2[C@H](COCC3CC3)CN(C)C(=O)[C@@H]2CC1

>  <measure-name>
cytotoxicity at 10 µM

>  <quantity-unit>
%

>  <numeric-result>
6.8

$$$$

Can you share its cytotoxicity at 10 µM? I mean this compound: OC[C@@H](O)CN(CCC(F)(F)F)c1ncccn1
2.41

Can you share its cytotoxicity at 10 µM? I mean this compound: Cc1cc(=O)n2c(n1)SCC2CC(=O)NCc1cc(-c2ccco2)on1 (configuration not stated)
-15.6

Can you share its cytotoxicity at 10 µM? I mean this compound: O=C(Cc1csc(-c2ccco2)n1)N1CCN(c2nccs2)CC1
-9.26
